The measured values listed here are drawn from paper doi:10.1101/2025.01.16.633226.

# SYSTEM: T1, LARP6 (ITC) (UniProt Q9BRS8 70-295)
# T1 sequence: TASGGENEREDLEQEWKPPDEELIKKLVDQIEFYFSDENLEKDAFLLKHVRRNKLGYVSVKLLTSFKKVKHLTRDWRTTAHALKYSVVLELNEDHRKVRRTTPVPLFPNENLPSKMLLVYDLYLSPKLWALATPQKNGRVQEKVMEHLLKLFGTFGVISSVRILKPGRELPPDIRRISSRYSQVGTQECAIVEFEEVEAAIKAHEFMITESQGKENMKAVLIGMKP
# METHOD: ITC
MEASURED ATTRIBUTE: pKd
API: returns pKd as number; meaning -log10 of concentration in mol/L.

Please give the measured pKd for this binder: COL1A1-TIS (structured_RNA) RNA: CCAGCCACAAAGAGUCUACAUGUCUAGGGUCUAGACAUGUUCAGCUUUGUGGACCUCCGG 6.40
